Molecular target: human GluR1 (Homo sapiens)
Sequence (P42261 19-906): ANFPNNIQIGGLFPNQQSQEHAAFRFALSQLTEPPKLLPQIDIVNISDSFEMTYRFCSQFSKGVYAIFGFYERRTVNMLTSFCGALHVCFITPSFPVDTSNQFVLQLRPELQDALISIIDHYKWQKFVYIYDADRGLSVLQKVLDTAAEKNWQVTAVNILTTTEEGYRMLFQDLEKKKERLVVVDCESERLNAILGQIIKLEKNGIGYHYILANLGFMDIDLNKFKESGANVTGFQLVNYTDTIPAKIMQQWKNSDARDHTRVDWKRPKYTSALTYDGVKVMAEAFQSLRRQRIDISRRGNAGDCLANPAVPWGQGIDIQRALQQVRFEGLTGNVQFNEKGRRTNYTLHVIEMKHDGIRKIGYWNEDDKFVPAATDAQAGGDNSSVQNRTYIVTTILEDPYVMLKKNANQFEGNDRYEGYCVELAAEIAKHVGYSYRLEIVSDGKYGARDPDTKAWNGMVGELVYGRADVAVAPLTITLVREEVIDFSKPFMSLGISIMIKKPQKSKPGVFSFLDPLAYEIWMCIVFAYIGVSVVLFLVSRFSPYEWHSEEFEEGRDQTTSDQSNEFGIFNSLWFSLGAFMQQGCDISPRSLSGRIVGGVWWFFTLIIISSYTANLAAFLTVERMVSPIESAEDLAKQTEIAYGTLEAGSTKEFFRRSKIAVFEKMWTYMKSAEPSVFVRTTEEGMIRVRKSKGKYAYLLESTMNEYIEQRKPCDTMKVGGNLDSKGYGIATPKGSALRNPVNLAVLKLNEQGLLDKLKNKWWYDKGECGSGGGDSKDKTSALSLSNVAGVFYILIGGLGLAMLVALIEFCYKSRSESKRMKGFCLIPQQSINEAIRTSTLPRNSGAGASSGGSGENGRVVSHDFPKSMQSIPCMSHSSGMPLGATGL
Test: Electrophysiological (patch-clamp) functional studies on transfected HEK293 cells
Details: vs 100 mμ AMPA
measurement.type: EC50

Problem: Return the recorded EC50 value; entry: CC(C)(C)c1onc(O)c1CC(N)C(=O)O (stereo not shown)
Result: > 300 µM
